Collected IC50 values appear next to each entry.
Assayed System: human TRPM8 (Homo sapiens)
Protocol Summary: In Vitro human TRPM8 Functional Assay (intracellular Ca2+, Fluo4, FDSS, menthol activation)
Condition Set: HEK293 cells stably expressing human TRPM8; activation with L-(-)-Menthol; 11-point dose-response

Take a look at these entries with their results.
Compound	Assayed System	IC50
O=C(O)c1ccc(S(=O)(=O)N(Cc2ccc(Cl)c(C(F)(F)F)c2)c2ncc(Cl)cc2Cl)cc1	human TRPM8 (Homo sapiens)	< 1000 nM
O=C(O)c1ccc(Cl)c(S(=O)(=O)N(Cc2ccccc2)c2ccccc2Cl)c1	human TRPM8 (Homo sapiens)	1000 to 10000 nM
O=S(=O)(c1cc(Cl)ccc1Cl)N(Cc1ccccc1)c1ccccn1	human TRPM8 (Homo sapiens)	1000 to 10000 nM
O=C(O)c1ccc(S(=O)(=O)N(Cc2ccccc2)c2cc(C(F)(F)F)ccn2)cc1	human TRPM8 (Homo sapiens)	1000 to 10000 nM
Cc1cccc(N(C(C)c2ccccc2F)S(=O)(=O)c2ccccc2F)c1 (stereo not shown)	human TRPM8 (Homo sapiens)	1000 to 10000 nM
O=C(O)c1ccc(S(=O)(=O)N(Cc2cccc(-c3ccccc3)c2)c2ncc(C(F)(F)F)cc2Cl)cc1	human TRPM8 (Homo sapiens)	< 1000 nM
O=C(O)c1ccc(S(=O)(=O)N(Cc2c(F)cccc2F)c2ncc(C(F)(F)F)cc2Cl)cc1	human TRPM8 (Homo sapiens)	< 1000 nM
O=S(=O)(c1cccc2cccnc12)N(Cc1ccccc1)c1ccccn1	human TRPM8 (Homo sapiens)	1000 to 10000 nM

Report measured IC50; entry is `O=[N+]([O-])c1ccc(S(=O)(=O)N(Cc2ccccc2)c2ccccn2)cc1`
1000 to 10000 nM

====

Assayed System: UniProt Q7Z2W7
Protocol Summary: In Vitro human TRPM8 Functional Assay (intracellular Ca2+, Fluo4, FDSS, menthol activation)
Condition Set: HEK293 cells stably expressing human TRPM8; activation with L-(-)-Menthol; 11-point dose-response
Quantity Kind: IC50

Compound	Assayed System	IC50
CC(=O)NCc1ccc(S(=O)(=O)N(Cc2ccccc2)c2ncc(C(F)(F)F)cc2Cl)cc1	UniProt Q7Z2W7	< 1000 nM

Report measured IC50; entry is COc1ccc(C(C)N(c2ccc(OC)cc2)S(=O)(=O)c2ccc(C)c(Cl)c2)cc1 (centres unmarked)
10000 to 30000 nM

Report measured IC50; entry is `C[C@@H](c1ccccc1)N(c1ncc(C(F)(F)F)cc1Cl)S(=O)(=O)c1ccc(C(=O)O)cc1`
< 1000 nM

Report measured IC50; entry is `O=C(O)c1cccc(S(=O)(=O)N(Cc2ccccc2)c2ccc(Cl)cc2)c1`
1000 to 10000 nM

Report measured IC50; entry is `O=C(O)c1ccc(S(=O)(=O)N(CCN2CCOCC2)c2ccc(C(F)(F)F)cc2Cl)cc1`
1000 to 10000 nM

Report measured IC50; entry is `Cc1cc(C(F)(F)F)cnc1N(Cc1ccccc1)S(=O)(=O)c1ccc(C(=O)O)cc1`
< 1000 nM

Report measured IC50; entry is `COc1ccc(S(=O)(=O)N(Cc2ccccc2)c2ncc(C(F)(F)F)cc2Cl)cn1`
< 1000 nM

Report measured IC50; entry is COc1ccc(N(C(C)c2ccccc2F)S(=O)(=O)c2ccc(F)c(Cl)c2)cc1 (centres unmarked)
1000 to 10000 nM

====

Collected IC50 values appear next to each entry.
Assayed System: human TRPM8 (Homo sapiens, UniProt Q7Z2W7)
Construct: expressed in transfected cells
Sequence (Q7Z2W7 whole entry): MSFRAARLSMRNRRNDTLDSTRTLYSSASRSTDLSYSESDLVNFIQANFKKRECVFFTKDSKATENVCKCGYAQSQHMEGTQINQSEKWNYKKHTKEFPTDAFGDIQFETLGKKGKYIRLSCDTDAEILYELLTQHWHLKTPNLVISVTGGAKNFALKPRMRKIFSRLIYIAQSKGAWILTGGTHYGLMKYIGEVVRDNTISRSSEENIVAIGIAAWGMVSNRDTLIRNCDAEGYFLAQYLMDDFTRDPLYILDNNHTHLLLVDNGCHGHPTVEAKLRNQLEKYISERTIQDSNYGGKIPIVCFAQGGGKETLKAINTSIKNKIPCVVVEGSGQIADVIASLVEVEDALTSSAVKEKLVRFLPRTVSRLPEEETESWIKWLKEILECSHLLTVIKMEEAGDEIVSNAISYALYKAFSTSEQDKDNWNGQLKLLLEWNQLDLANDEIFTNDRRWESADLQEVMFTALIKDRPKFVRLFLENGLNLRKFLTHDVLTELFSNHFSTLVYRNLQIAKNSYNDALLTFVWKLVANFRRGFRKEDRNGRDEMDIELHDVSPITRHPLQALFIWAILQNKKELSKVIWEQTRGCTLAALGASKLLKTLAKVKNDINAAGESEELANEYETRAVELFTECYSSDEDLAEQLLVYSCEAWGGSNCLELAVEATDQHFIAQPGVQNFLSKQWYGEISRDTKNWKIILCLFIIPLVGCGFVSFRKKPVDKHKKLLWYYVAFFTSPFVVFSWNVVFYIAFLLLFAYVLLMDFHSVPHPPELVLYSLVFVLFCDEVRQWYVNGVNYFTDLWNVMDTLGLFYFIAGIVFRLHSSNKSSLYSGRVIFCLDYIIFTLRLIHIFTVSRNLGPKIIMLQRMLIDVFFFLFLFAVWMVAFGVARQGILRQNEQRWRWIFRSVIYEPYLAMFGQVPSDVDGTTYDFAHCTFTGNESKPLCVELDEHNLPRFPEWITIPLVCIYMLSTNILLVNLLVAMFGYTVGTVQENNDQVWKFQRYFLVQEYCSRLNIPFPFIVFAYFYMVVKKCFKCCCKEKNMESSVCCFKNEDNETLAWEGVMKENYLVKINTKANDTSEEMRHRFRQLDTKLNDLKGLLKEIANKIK
Protocol Summary: In Vitro human TRPM8 Functional Assay (intracellular Ca2+, Fluo4, FDSS, menthol activation)
Assay type: cell-based
Condition Set: HEK293 cells stably expressing human TRPM8; activation with L-(-)-Menthol; 11-point dose-response

Take a look at these entries with their results.
Molecule	Assayed System	IC50
Cc1cccc(N(C(C)c2ccccc2F)S(=O)(=O)c2ccc(F)cc2C)c1 (stereo not shown)	human TRPM8 (Homo sapiens, UniProt Q7Z2W7)	1000 to 10000 nM
O=C(O)c1ccc(S(=O)(=O)N(Cc2ccc(-c3ccco3)cc2)c2ncc(C(F)(F)F)cc2Cl)cc1	human TRPM8 (Homo sapiens, UniProt Q7Z2W7)	< 1000 nM
COc1ccccc1N(Cc1ccccc1)S(=O)(=O)c1cccc(C(=O)O)c1	human TRPM8 (Homo sapiens, UniProt Q7Z2W7)	10000 to 30000 nM
O=C(O)c1ccc(S(=O)(=O)N(Cc2ccc(-n3cccn3)cc2)c2ncc(C(F)(F)F)cc2Cl)cc1	human TRPM8 (Homo sapiens, UniProt Q7Z2W7)	< 1000 nM
Cc1cc(Cl)cnc1N(Cc1ccc(OC(F)(F)F)cc1)S(=O)(=O)c1ccc(C(=O)O)cc1	human TRPM8 (Homo sapiens, UniProt Q7Z2W7)	< 1000 nM
O=C(O)c1ccc(S(=O)(=O)N(Cc2cc(F)cc(F)c2)c2ncc(C(F)(F)F)cc2Cl)cc1	human TRPM8 (Homo sapiens, UniProt Q7Z2W7)	< 1000 nM

Report measured IC50; entry is COc1ccc(N(C(C)c2ccc(C)cc2)S(=O)(=O)c2cc(Cl)ccc2F)cc1 (stereo not shown)
1000 to 10000 nM

Report measured IC50; entry is `O=C(O)c1ccc(S(=O)(=O)N(Cc2cc(F)ccc2F)c2ncc(C(F)(F)F)cc2Cl)cc1`
< 1000 nM

Report measured IC50; entry is COc1cccc(C(C)N(c2ccccc2)S(=O)(=O)c2ccc(C)c(F)c2)c1 (stereo not shown)
1000 to 10000 nM

Report measured IC50; entry is `COc1ccc(-c2cnc(N(Cc3ccccc3)S(=O)(=O)c3ccc(C(=O)O)cc3)c(Cl)c2)cc1`
< 1000 nM

Report measured IC50; entry is `O=C(O)c1ccc(S(=O)(=O)N(Cc2ccc(Cl)c(Cl)c2)c2ncc(C(F)(F)F)cc2Cl)cc1`
< 1000 nM

====

Assayed System: human TRPM8 (Homo sapiens, UniProt Q7Z2W7)
Construct: expressed in transfected cells
Protocol Summary: In Vitro human TRPM8 Functional Assay (intracellular Ca2+, Fluo4, FDSS, menthol activation)
Type: cell-based
Condition Set: HEK293 cells stably expressing human TRPM8; activation with L-(-)-Menthol; 11-point dose-response
Experimental: In Vitro human TRPM8 Functional Assay The functional activity of compounds was determined by measuring changes in intracellular calcium concentration using a Ca^2+-sensitive fluorescent dye, Fluo4 (Molecular Probes). The changes in fluorescent signal were monitored by the cell imaging technology by Hamamatsu Photonics's Functional Drug Screening System (FDSS). […] IC50 values for compounds of the present invention were determined from 11-point dose-response studies. […]
pIC50: −log10 of the molar value.
Collected pIC50 values appear next to each entry.

Report measured pIC50; entry is `Cc1cc(Cl)cnc1N(Cc1ccc(Cl)cc1C(F)(F)F)S(=O)(=O)c1ccc(C(=O)O)cc1`
> 6.00

Report measured pIC50; entry is `COc1ccc(-c2ccc(CN(c3ncc(C(F)(F)F)cc3Cl)S(=O)(=O)c3ccc(C(=O)O)cc3)cc2)cn1`
> 6.00

Report measured pIC50; entry is `O=C(O)c1ccc(S(=O)(=O)N(CCC2CCCCC2)c2ncc(C(F)(F)F)cc2Cl)cc1`
> 6.00

Report measured pIC50; entry is `O=C(O)Cc1ccc(S(=O)(=O)N(Cc2ccccc2)c2ncc(C(F)(F)F)cc2Cl)cc1`
> 6.00

Report measured pIC50; entry is `O=C(O)c1ccc(S(=O)(=O)N(Cc2ccc(-c3ccccc3)cc2)c2ncc(C(F)(F)F)cc2Cl)cc1`
> 6.00

Report measured pIC50; entry is `O=C(O)c1ccc(S(=O)(=O)N(Cc2ccccn2)c2ccc(C(F)(F)F)cc2Cl)cc1`
5.00 to 6.00

Report measured pIC50; entry is `O=C(O)c1ccc(S(=O)(=O)N(CCOc2ccc(F)cc2)c2ncc(C(F)(F)F)cc2Cl)cc1`
> 6.00

Report measured pIC50; entry is `O=C(O)c1ccc(S(=O)(=O)N(Cc2ccc(Oc3ccccc3)cc2)c2ncc(C(F)(F)F)cc2Cl)cc1`
> 6.00

Report measured pIC50; entry is `Cc1cc(Cl)cnc1N(Cc1ccc(F)c(Cl)c1)S(=O)(=O)c1ccc(C(=O)O)cc1`
> 6.00

Report measured pIC50; entry is `Cc1cc(Cl)cnc1N(Cc1ccc(N2CCCC2=O)cc1)S(=O)(=O)c1ccc(C(=O)O)cc1`
5.00 to 6.00

Report measured pIC50; entry is `O=C(O)c1ccc(S(=O)(=O)N(Cc2ccccc2)c2ncc(-c3ccsc3)cc2Cl)cc1`
> 6.00

Report measured pIC50; entry is `O=C(O)c1ccc(S(=O)(=O)N(CC2CC2)c2ncc(C(F)(F)F)cc2Cl)cc1`
5.00 to 6.00

Report measured pIC50; entry is `O=C(O)c1ccc(S(=O)(=O)N(Cc2ccc(Cl)cc2C(F)(F)F)c2ncc(Cl)cc2Cl)cc1`
> 6.00

Report measured pIC50; entry is `Cc1cccnc1N(Cc1ccccc1)S(=O)(=O)c1ccc(C(=O)O)cc1`
5.00 to 6.00

Report measured pIC50; entry is `O=C(O)c1ccc(S(=O)(=O)N(Cc2cccc(C(F)(F)F)c2)c2ncc(C(F)(F)F)cc2Cl)cc1`
> 6.00

Report measured pIC50; entry is `O=C(O)c1ccc(S(=O)(=O)N(Cc2ccc(Cl)cc2)c2ncc(C(F)(F)F)cc2Cl)cc1`
> 6.00

Report measured pIC50; entry is `CC(C)c1ccc(CN(c2ncc(C(F)(F)F)cc2Cl)S(=O)(=O)c2ccc(C(=O)O)cc2)cc1`
> 6.00

Report measured pIC50; entry is `COc1ccccc1-c1cnc(N(Cc2ccccc2)S(=O)(=O)c2ccc(C(=O)O)cc2)c(Cl)c1`
> 6.00

Report measured pIC50; entry is `O=C(O)c1ccc(S(=O)(=O)N(Cc2ccc(NC(=O)c3ccccn3)cc2)c2ncc(C(F)(F)F)cc2Cl)cc1`
> 6.00

Report measured pIC50; entry is `O=C(O)c1ccc(Cl)c(S(=O)(=O)N(Cc2ccccc2)c2ccc(F)cc2)c1`
4.52 to 5.00

Report measured pIC50; entry is `O=C(O)c1ccc(S(=O)(=O)N(Cc2ccc(OC(F)(F)F)cc2)c2ncc(C(F)(F)F)cc2Cl)cc1`
> 6.00

Report measured pIC50; entry is `O=C(O)c1ccc(S(=O)(=O)N(Cc2ccc(Cl)c(F)c2)c2ncc(Cl)cc2Cl)cc1`
> 6.00

Report measured pIC50; entry is `O=C(O)c1ccc(S(=O)(=O)N(Cc2ccc(-c3cccs3)cc2)c2ncc(C(F)(F)F)cc2Cl)cc1`
> 6.00
